What logCL was measured for each of the following?
System: Hepatocyte
Experiment: Hepatic clearance in human hepatocytes in absence of fetal calf serum
Conditions: hepatocytes

Known logCL results, listed for orientation:
Cn1c(=O)c2c(ncn2C)n(C)c1=O; 0.1461
Cc1ncc2n1-c1ccc(Cl)cc1C(c1ccccc1F)=NC2; 0.8195
C=CCN1CC[C@]23c4c5ccc(O)c4O[C@H]2C(=O)CC[C@@]3(O)[C@H]1C5; 1.29
CC(C)(O)c1ccccc1CC[C@@H](SCC1(CC(=O)O)CC1)c1cccc(/C=C/c2ccc3ccc(Cl)cc3n2)c1; 0.1038
CN(C)CCCN1c2ccccc2Sc2ccc(Cl)cc21; 0.9345

Value sought for every listed molecule: logCL.
1. Cc1ccc(C)c(OCCCC(C)(C)C(=O)O)c1
2. O=C1CC2(CCCC2)CC(=O)N1CCCCN1CCN(c2ncccn2)CC1
3. COc1ccc([C@@H]2Sc3ccccc3N(CCN(C)C)C(=O)[C@@H]2OC(C)=O)cc1
4. Cc1c(C)c2c(c(C)c1O)CCC(C)(COc1ccc(CC3SC(=O)NC3=O)cc1)O2 (centres undefined)

1. 0.49
2. 1.2833
3. 1.1072
4. 0.9542

====

Assay: Hepatic clearance in human hepatocytes in absence of fetal calf serum
Settings: human hepatocytes
recorded_metric: CLhep predicted
Just so you know, I need the unit written after the number.

Return reported CLhep predicted values for all items listed beneath this line.
1. O=C1CC2(CCCC2)CC(=O)N1CCCCN1CCN(c2ncccn2)CC1 [BUSPIRONE]
2. COc1ccc2c(c1)c(CC(=O)O)c(C)n2C(=O)c1ccc(Cl)cc1 [INDOMETHACIN]
3. Cn1c(=O)c2[nH]cnc2n(C)c1=O.O [THEOPHYLLINE]

["19.2 mL/min/kg", "2.24 mL/min/kg", "0.65 mL/min/kg"]

Items follow; give CLhep predicted for each.
1. CN1C2CCCC1CC(NC(=O)c1nn(C)c3ccccc13)C2 (centres undefined) [GRANISETRON]
2. COCCc1ccc(OCC(O)CNC(C)C)cc1 (centres undefined) [METOPROLOL]
3. CC(=O)CC(c1ccccc1)c1c(O)c2ccccc2oc1=O (centres undefined) [WARFARIN]
4. C[C@]12C=CC(=O)C=C1CC[C@@H]1[C@@H]2[C@@H](O)C[C@@]2(C)[C@H]1CC[C@]2(O)C(=O)CO [PREDNISOLONE]
5. C[C@H]1C[C@@H]2[C@H]([C@@H](O)C[C@@]3(C)[C@H]2CC[C@]3(O)C(=O)CO)[C@@]2(C)C=CC(=O)C=C12 [METHYLPREDNISOLONE]
6. Cn1c(=O)c2c(ncn2C)n(C)c1=O [CAFFEINE]

["11 mL/min/kg", "12.2 mL/min/kg", "0.16 mL/min/kg", "8.7 mL/min/kg", "7.5 mL/min/kg", "1.4 mL/min/kg"]

====

Assay: Hepatic clearance in human hepatocytes in absence of fetal calf serum
Details: hepatocytes
recorded_metric: CLhep predicted (mL/min/kg)
Numbers only, in mL/min/kg.

Recorded results for 7 molecules are shown here.
CN1C(C(=O)Nc2ccccn2)=C(O)c2sccc2S1(=O)=O; 0.073
CCCCNC(=O)NS(=O)(=O)c1ccc(C)cc1 [TOLBUTAMIDE]; 0.3
COc1ccccc1OCCNCC(O)COc1cccc2[nH]c3ccccc3c12 (stereo not drawn); 8.7
O=C(O)c1cc(-c2ccc(F)cc2F)ccc1O; 0.18
Cc1ncc2n1-c1ccc(Cl)cc1C(c1ccccc1F)=NC2; 6.6
Cc1ccc(C)c(OCCCC(C)(C)C(=O)O)c1; 3.09
CC(C)(C)NC[C@H](O)COc1nsnc1N1CCOCC1; 9.17

Shifting focus to the molecule that follows.
Quick one: CLhep predicted of O=C(O)Cc1ccccc1Nc1c(Cl)cccc1Cl ? 7.33

Data origin, for the record: ChEMBL document CHEMBL1137707
